Provenance of the data: paper PMC12416549

# SUBJECT OF TEST: T1, TNFR1 (Homo sapiens, UniProt P19438)
# T1 chain: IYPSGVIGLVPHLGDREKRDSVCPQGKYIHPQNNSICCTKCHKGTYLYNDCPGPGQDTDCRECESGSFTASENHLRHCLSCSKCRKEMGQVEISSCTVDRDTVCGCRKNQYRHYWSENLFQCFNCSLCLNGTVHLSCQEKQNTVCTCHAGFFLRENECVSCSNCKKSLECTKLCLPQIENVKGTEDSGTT
# PROTOCOL SUMMARY: yeast display SC50
apparent Kd (screen) vs 0.7 nM: less than gives Condition met; not less than gives Condition not met.

# input Threshold test, apparent Kd (screen) < 0.7 nM: K11P (designed binder) SMEEEVEKAAPEYEKKKKEAIEKHLEKLKAKDKEAAERFLKELEEAAKEYAKDEAKTMSEEEAKRRAKKYKEKVLLSELSEEEQKEIKEAEEKLVRTILKYVEEAAK
# output Condition not met

# input Lab note: confirm whether the reported apparent Kd (screen) for this binder is below 0.7 nM, equality not counting. binder: K56S (designed binder) SMEEEVEKAAKEYEKKKKEAIEKHLEKLKAKDKEAAERFLKELEEAAKEYAKDEASTMSEEEAKRRAKKYKEKVLLSELSEEEQKEIKEAEEKLVRTILKYVEEAAK
# output Condition not met

# input In plain terms, does L28T (designed binder) SMEEEVEKAAKEYEKKKKEAIEKHLEKTKAKDKEAAERFLKELEEAAKEYAKDEAKTMSEEEAKRRAKKYKEKVLLSELSEEEQKEIKEAEEKLVRTILKYVEEAAK come in under 0.7 nM for apparent Kd (screen)?
# output Condition not met

# input Input R65L (designed binder) SMEEEVEKAAKEYEKKKKEAIEKHLEKLKAKDKEAAERFLKELEEAAKEYAKDEAKTMSEEEAKLRAKKYKEKVLLSELSEEEQKEIKEAEEKLVRTILKYVEEAAK ; condition: apparent Kd (screen) strictly below 0.7 nM. Does it hold?
# output Condition not met

# input Quick check: does E34M (designed binder) SMEEEVEKAAKEYEKKKKEAIEKHLEKLKAKDKMAAERFLKELEEAAKEYAKDEAKTMSEEEAKRRAKKYKEKVLLSELSEEEQKEIKEAEEKLVRTILKYVEEAAK have apparent Kd (screen) under 0.7 nM?
# output Condition met

# input Lab note: confirm whether the reported apparent Kd (screen) for this binder is below 0.7 nM, equality not counting. binder: A55D (designed binder) SMEEEVEKAAKEYEKKKKEAIEKHLEKLKAKDKEAAERFLKELEEAAKEYAKDEDKTMSEEEAKRRAKKYKEKVLLSELSEEEQKEIKEAEEKLVRTILKYVEEAAK
# output Condition not met

# input Dear reviewer, please state whether A90R (designed binder) SMEEEVEKAAKEYEKKKKEAIEKHLEKLKAKDKEAAERFLKELEEAAKEYAKDEAKTMSEEEAKRRAKKYKEKVLLSELSEEEQKEIKEREEKLVRTILKYVEEAAK has apparent Kd (screen) strictly beneath 0.7 nM.
# output Condition met
